tested_on: Lck (Homo sapiens)
Sequence (P06239 whole entry): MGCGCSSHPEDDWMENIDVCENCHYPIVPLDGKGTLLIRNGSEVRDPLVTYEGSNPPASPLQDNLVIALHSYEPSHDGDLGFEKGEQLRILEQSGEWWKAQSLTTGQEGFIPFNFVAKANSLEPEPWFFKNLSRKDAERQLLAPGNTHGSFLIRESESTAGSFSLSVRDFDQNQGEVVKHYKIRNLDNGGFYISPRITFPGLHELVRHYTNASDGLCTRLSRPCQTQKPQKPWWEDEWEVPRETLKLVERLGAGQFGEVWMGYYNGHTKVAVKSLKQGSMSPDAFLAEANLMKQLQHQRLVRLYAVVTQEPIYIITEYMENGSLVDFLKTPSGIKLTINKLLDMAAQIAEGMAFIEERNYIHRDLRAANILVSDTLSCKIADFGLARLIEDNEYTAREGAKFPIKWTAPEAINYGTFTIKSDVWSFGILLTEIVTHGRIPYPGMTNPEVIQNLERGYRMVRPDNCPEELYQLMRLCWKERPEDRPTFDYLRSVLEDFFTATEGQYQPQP
protocol_details: Kinase panel: Lck
Assay type: biochemical, human/mammalian
condition_label: compound at 10 μM, read-out: % of activity respect of the control

| molecule | remaining activity at 10 µM |
| --- | --- |
| O=c1[nH]c2ncc(-c3ccc(F)cc3)nc2n1C1CCCCC1 | 105% |
| O=c1[nH]c2ncc(-c3ccc(F)cc3)nc2n1CC1CC1 | 99% |
| CC(c1ccccc1)n1c(=O)[nH]c2ncc(-c3ccc(F)cc3)nc21 (stereo not shown) | 90% |
| C[C@H](c1ccccc1)n1c(=O)[nH]c2ncc(-c3ccccc3)nc21 | 89% |

---

Test system: T. b. brucei
protocol_details: Trypanosome proliferation assay
Assay type: cell-based, Trypanosoma brucei brucei
condition_label: geometric mean of two or more determinations; standard cell viability (resazurin) assay; read-out: EC50 T. b. brucei
With a cut-off of 50 nM, any EC50 strictly below it is called YES; any EC50 meeting it or above is called NO.

| compound | group_label |
| --- | --- |
| O=c1[nH]c2ncc(-c3cccnc3)nc2n1C1CCCCC1 [Compound 30] | NO |
| c1ccc(-c2cnc3[nH]nc(C4CCCCC4)c3c2)cc1 [Compound 60] | NO |
| O=c1[nH]c2ncc(N3CCCCC3)nc2n1C1CCCCC1 [Compound 31] | NO |
| O=c1[nH]c2ncc(-c3ccccc3CO)nc2n1C1CCCCC1 [Compound 28] | YES |
| O=c1[nH]c2ncc(-c3ccccc3)nc2n1C1CCCCC1 [Compound 19] | YES |
| O=c1[nH]c2ncc(N3CCCCC3)cc2n1C1CCCCC1 [Compound 56] | NO |

---

tested_on: UniProt:P49841
Sequence (P49841 whole entry): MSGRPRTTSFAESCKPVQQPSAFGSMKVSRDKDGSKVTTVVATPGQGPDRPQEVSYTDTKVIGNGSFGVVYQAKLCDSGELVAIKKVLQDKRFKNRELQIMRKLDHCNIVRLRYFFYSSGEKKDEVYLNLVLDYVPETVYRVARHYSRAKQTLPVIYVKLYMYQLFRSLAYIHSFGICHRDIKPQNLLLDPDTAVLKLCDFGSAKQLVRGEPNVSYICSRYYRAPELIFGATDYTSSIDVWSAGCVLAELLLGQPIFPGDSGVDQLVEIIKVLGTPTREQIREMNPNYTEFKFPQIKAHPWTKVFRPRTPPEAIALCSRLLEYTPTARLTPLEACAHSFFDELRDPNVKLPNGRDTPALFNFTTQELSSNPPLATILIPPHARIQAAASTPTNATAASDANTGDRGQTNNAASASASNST
protocol_details: Kinase panel: GSK3b
Assay type: biochemical, human/mammalian
condition_label: compound at 10 μM, read-out: % of activity respect of the control

| compound | units_symbol | remaining activity at 10 µM |
| --- | --- | --- |
| C[C@H](c1ccccc1)n1c(=O)[nH]c2ncc(-c3ccccc3)nc21 [Compound 14] | % | 66 |
| CC(c1ccccc1)n1c(=O)[nH]c2ncc(-c3ccc(F)cc3)nc21 (stereo not shown) [Compound 1] | % | 63 |
| O=c1[nH]c2ncc(-c3ccc(F)cc3)nc2n1C1CCCCC1 [Compound 12] | % | 70 |
| O=c1[nH]c2ncc(-c3ccc(F)cc3)nc2n1CC1CC1 [Compound 10] | % | 37 |

---

Consider the following compounds and their measured remaining activity at 10 µM readings.
tested_on: IKK epsilon (14231) (Homo sapiens, UniProt Q14164)
Sequence (Q14164 whole entry): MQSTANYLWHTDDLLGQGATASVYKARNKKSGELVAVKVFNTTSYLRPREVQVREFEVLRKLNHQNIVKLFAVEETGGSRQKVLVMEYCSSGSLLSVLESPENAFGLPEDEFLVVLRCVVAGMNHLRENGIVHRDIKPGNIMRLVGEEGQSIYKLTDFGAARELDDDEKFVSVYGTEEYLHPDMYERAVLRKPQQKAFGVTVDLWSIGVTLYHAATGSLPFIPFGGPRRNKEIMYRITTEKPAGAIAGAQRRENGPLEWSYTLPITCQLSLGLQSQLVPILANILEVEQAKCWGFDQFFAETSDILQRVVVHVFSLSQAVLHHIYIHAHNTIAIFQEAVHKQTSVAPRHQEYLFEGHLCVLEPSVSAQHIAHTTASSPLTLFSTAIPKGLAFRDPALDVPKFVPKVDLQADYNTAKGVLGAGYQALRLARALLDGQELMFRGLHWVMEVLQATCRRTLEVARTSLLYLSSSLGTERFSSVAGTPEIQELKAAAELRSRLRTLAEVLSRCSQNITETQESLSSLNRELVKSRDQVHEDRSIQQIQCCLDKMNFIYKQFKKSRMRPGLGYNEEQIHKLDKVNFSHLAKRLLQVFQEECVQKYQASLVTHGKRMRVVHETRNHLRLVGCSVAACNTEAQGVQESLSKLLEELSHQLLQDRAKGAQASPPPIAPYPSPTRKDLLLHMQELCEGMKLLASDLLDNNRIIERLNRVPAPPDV
protocol_details: Kinase panel: IKK epsilon (14231)
Assay type: biochemical, human/mammalian
condition_label: compound at 10 μM, read-out: % of activity respect of the control

| compound | tested_on | remaining activity at 10 µM (%) |
| --- | --- | --- |
| CC(c1ccccc1)n1c(=O)[nH]c2ncc(-c3ccc(F)cc3)nc21 (stereo not shown) [Compound 1] | IKK epsilon (14231) (Homo sapiens, UniProt Q14164) | 124 |
| O=c1[nH]c2ncc(-c3ccc(F)cc3)nc2n1CC1CC1 [Compound 10] | IKK epsilon (14231) (Homo sapiens, UniProt Q14164) | 103 |
| O=c1[nH]c2ncc(-c3ccc(F)cc3)nc2n1C1CCCCC1 [Compound 12] | IKK epsilon (14231) (Homo sapiens, UniProt Q14164) | 98 |
| C[C@H](c1ccccc1)n1c(=O)[nH]c2ncc(-c3ccccc3)nc21 [Compound 14] | IKK epsilon (14231) (Homo sapiens, UniProt Q14164) | 87 |

---

protocol_details: In vivo pharmacokinetics in mice
Design: species or system female NMRI mice
condition_label: female, NMRI, mouse, whole blood, po, 20 mg/kg, 20 mg kg^−1, female NMRI mice, blood

| compound | Tmax |
| --- | --- |
| O=c1[nH]c2ncc(-c3ccccc3CO)nc2n1C1CCCCC1 [Compound 28] | 15 min |

---

tested_on: SGK1 (Homo sapiens)
Sequence (O00141 1-431): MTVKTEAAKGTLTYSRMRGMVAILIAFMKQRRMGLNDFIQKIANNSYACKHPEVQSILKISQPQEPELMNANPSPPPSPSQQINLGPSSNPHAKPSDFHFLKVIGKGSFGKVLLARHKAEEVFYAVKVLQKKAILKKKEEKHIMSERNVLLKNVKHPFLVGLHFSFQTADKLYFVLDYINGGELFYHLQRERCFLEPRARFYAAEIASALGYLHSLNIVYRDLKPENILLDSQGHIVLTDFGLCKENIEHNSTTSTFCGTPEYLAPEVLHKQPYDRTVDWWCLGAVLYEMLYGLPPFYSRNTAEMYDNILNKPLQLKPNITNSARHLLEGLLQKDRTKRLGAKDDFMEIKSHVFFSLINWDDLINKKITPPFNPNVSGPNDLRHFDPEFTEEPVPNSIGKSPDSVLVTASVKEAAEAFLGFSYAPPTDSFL
protocol_details: Kinase panel: SGK1
Format: biochemical, human/mammalian
condition_label: compound at 10 μM, read-out: % of activity respect of the control
Consider the following compounds and their measured remaining activity at 10 µM readings.

| compound | tested_on | remaining activity at 10 µM, % |
| --- | --- | --- |
| CC(c1ccccc1)n1c(=O)[nH]c2ncc(-c3ccc(F)cc3)nc21 (stereo not shown) [Compound 1] | SGK1 (Homo sapiens) | 104 |
| O=c1[nH]c2ncc(-c3ccc(F)cc3)nc2n1CC1CC1 [Compound 10] | SGK1 (Homo sapiens) | 110 |
| O=c1[nH]c2ncc(-c3ccc(F)cc3)nc2n1C1CCCCC1 [Compound 12] | SGK1 (Homo sapiens) | 111 |
| C[C@H](c1ccccc1)n1c(=O)[nH]c2ncc(-c3ccccc3)nc21 [Compound 14] | SGK1 (Homo sapiens) | 98 |

---

Consider the following compounds and their measured Tmax readings.
protocol_details: In vivo pharmacokinetics in mice
Design: species or system female NMRI mice
condition_label: female, NMRI, mouse, whole blood, ip, 20 mg/kg, 20 mg kg^−1, female NMRI mice, blood

| compound | Tmax / h |
| --- | --- |
| O=c1[nH]c2ncc(-c3ccccc3CO)nc2n1C1CCCCC1 [Compound 28] | 0.083 |
| O=c1[nH]c2ncc(-c3ccccc3)nc2n1C1CCOCC1 [Compound 38] | 2 |

---

Consider the following molecules and their measured remaining activity at 10 µM readings.
tested_on: IKKb (Homo sapiens)
Sequence (O14920 whole entry): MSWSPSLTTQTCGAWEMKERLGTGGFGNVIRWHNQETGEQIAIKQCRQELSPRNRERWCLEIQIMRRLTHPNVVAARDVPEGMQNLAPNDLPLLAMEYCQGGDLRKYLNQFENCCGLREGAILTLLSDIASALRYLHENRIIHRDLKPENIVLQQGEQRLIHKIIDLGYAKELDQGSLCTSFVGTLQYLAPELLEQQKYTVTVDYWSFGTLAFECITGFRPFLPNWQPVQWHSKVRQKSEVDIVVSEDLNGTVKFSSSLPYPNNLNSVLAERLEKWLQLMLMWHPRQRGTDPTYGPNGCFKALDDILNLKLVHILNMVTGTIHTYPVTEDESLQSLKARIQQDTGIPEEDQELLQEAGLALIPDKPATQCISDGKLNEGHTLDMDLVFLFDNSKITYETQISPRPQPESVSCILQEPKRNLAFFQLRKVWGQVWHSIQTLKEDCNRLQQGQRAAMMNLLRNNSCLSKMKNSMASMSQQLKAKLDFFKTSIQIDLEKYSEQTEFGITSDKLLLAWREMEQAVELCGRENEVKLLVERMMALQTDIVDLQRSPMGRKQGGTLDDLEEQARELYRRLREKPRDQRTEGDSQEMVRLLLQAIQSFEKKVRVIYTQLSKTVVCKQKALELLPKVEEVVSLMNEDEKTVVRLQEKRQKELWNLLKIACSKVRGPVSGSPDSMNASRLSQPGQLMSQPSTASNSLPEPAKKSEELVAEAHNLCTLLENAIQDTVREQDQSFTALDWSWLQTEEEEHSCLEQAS
protocol_details: Kinase panel: IKKb
Assay type: biochemical, human/mammalian
condition_label: compound at 10 μM, read-out: % of activity respect of the control

| molecule | remaining activity at 10 µM [%] |
| --- | --- |
| C[C@H](c1ccccc1)n1c(=O)[nH]c2ncc(-c3ccccc3)nc21 [Compound 14] | 77 |
| O=c1[nH]c2ncc(-c3ccc(F)cc3)nc2n1CC1CC1 [Compound 10] | 105 |
| O=c1[nH]c2ncc(-c3ccc(F)cc3)nc2n1C1CCCCC1 [Compound 12] | 94 |
| CC(c1ccccc1)n1c(=O)[nH]c2ncc(-c3ccc(F)cc3)nc21 (stereo not shown) [Compound 1] | 103 |

---

tested_on: CK2 (Homo sapiens, UniProt P68400)
Sequence (P68400 whole entry): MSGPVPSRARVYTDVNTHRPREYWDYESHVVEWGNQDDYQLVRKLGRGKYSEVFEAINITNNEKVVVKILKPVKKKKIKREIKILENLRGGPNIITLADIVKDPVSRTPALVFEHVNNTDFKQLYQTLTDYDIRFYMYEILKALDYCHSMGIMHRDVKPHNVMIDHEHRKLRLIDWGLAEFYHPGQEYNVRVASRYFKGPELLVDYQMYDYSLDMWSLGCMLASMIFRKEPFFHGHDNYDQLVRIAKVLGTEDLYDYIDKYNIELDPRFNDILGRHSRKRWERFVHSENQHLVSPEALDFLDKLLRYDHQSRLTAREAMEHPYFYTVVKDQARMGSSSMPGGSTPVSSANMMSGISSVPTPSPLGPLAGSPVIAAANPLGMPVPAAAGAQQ
protocol_details: Kinase panel: CK2
Type: biochemical, human/mammalian
condition_label: compound at 10 μM, read-out: % of activity respect of the control

| molecule | remaining activity at 10 µM / % |
| --- | --- |
| C[C@H](c1ccccc1)n1c(=O)[nH]c2ncc(-c3ccccc3)nc21 | 105 |
| CC(c1ccccc1)n1c(=O)[nH]c2ncc(-c3ccc(F)cc3)nc21 (stereo not shown) | 107 |
| O=c1[nH]c2ncc(-c3ccc(F)cc3)nc2n1CC1CC1 | 105 |
| O=c1[nH]c2ncc(-c3ccc(F)cc3)nc2n1C1CCCCC1 | 111 |

---

Consider the following compounds and their measured Cmax readings.
protocol_details: In vivo pharmacokinetics in mice
Set-up: species or system female NMRI mice
condition_label: mouse, whole blood, ip, 20 mg kg^−1, female NMRI mice, blood

| compound | Cmax, ng/mL |
| --- | --- |
| O=c1[nH]c2ncc(-c3ccccc3)nc2n1C1CCOCC1 [Compound 38] | 83 |
| O=c1[nH]c2ncc(-c3ccccc3CO)nc2n1C1CCCCC1 [Compound 28] | 5200 |

---

System: T. brucei bloodstream-stage cells
protocol_details: Static–cidal (SC) assay
Type: cell-based, Trypanosoma brucei brucei
condition_label: text and figure legend; at concentrations tested
Experimental: Determination of cidality against T. brucei bloodstream-stage cells was performed using a static–cidal (SC) assay as previously reported.[26] Briefly, bloodstream-form trypanosomes were seeded into 384-well plates at 4×10^5 mL^−1 (50 μL per well), followed by immediate addition of resazurin (50 μM final) to one of the plates, and all plates were incubated at 37 °C, 5 % CO2. After 4 h the t0 plate was read using a PerkinElmer Victor 3 plate reader (λex=528 nm, λem=590 nm). […]

| compound | mode of antiparasitic effect (in words) |
| --- | --- |
| c1cncc(-c2cnc3[nH]nc(C4CCCCC4)c3c2)c1 | cidal behaviour |
| N=C(N)c1ccc(OCCCCCOc2ccc(C(=N)N)cc2)cc1 [pentamidine, reference compound] | cidal |
| c1ccc(-c2cnc3[nH]nc(C4CCCCC4)c3c2)cc1 | cidal behaviour |
